// reported pKd for each item listed
experimental.target: HLA-A*68:01
assay.remarks: IEDB peptide-MHC binding, purified MHC/competitive/radioactivity; filed as Kd, often an IC50 or EC50 that approximates it; bounds were set here for any values at or beyond the usual limits of such assays
conditions.used: source organism: Vaccinia virus WR
pKd here: minus log base 10 of the concentration, concentration in moles per litre.

Please review the entries below; each comes with its answer.
- monomer.sequence: "IMVASDVCKK"
  experimental.target: "HLA-A*68:01"
  recorded.measurement: 7.13
- monomer.sequence: "VSKHWELTNK"
  experimental.target: "HLA-A*68:01"
  recorded.measurement: 5.82

Note down pKd recorded for RTKLMSNIK
6.11

Note down pKd recorded for AARILSEKR
6.07

Note down pKd recorded for SMGFKVTTR
5.90

Note down pKd recorded for AAGIIILMEY
5.92

Note down pKd recorded for NFIPIIYSK
7.11

====

experimental.target: HLA-A*02:06
assay.remarks: IEDB peptide-MHC binding, purified MHC/competitive/radioactivity; filed as Kd, often an IC50 or EC50 that approximates it; bounds were set here for any values at or beyond the usual limits of such assays
conditions.used: source organism: Vaccinia virus WR
outcome.measure: log10(Kd) (log10 of the value in nM)
// do not treat as linear: log10 of Kd, unit nM

Please review the entries below; each comes with its answer.
- monomer.sequence: "QLVFNSISA"
  experimental.target: "HLA-A*02:06"
  log10(Kd): 3.58
- monomer.sequence: "LISLINSLV"
  experimental.target: "HLA-A*02:06"
  log10(Kd): 1.86
- monomer.sequence: "NIFMTLVPV"
  experimental.target: "HLA-A*02:06"
  log10(Kd): 2.36

Now for a further sequence.
Note down log10(Kd) recorded for ITDNGPMPYM
2.48

====

experimental.target: HLA-A*02:01
assay.remarks: IEDB peptide-MHC binding, purified MHC/competitive/radioactivity; filed as Kd, often an IC50 or EC50 that approximates it; bounds were set here for any values at or beyond the usual limits of such assays
conditions.used: source organism: Homo sapiens
// reported pKd for each item listed
pKd here: minus log base 10 of the concentration, concentration in moles per litre.

Please review the entries below; each comes with its answer.
- monomer.sequence: "ELNDRLAVYI"
  pKd: 5.94
- monomer.sequence: "GIGILTVIL"
  pKd: 6.00

Note down pKd recorded for QLYKEQLAKL
7.11

====

// reported log10 Kd for each item listed
experimental.target: HLA-A*02:02
assay.remarks: IEDB peptide-MHC binding, purified MHC/competitive/radioactivity; filed as Kd, often an IC50 or EC50 that approximates it; bounds were set here for any values at or beyond the usual limits of such assays
conditions.used: source organism: Vaccinia virus WR
// do not treat as linear: log10 of Kd, unit nM

Please review the entries below; each comes with its answer.
- monomer.sequence: "TIILNKIVQL"
  log10 Kd: 3.25
- monomer.sequence: "DVFRPLFDFV"
  log10 Kd: 3.01
- monomer.sequence: "LLWFLTGTFV"
  log10 Kd: 0.38
- monomer.sequence: "AVKFAEESYT"
  log10 Kd: 3.25
- monomer.sequence: "HVLLPFYET"
  log10 Kd: 4.21
- monomer.sequence: "DTSPTKRCRL"
  log10 Kd: 4.09
- monomer.sequence: "ILQMREIIT"
  log10 Kd: 3.61
- monomer.sequence: "LLKCVSDSWL"
  log10 Kd: 1.88

Note down log10 Kd recorded for LTPFEKEFT
4.23

Note down log10 Kd recorded for EQYTCNKPYT
4.15

Note down log10 Kd recorded for EVIERINLLV
4.29

Note down log10 Kd recorded for MLNRVQILM
0.68

Note down log10 Kd recorded for LLNVQTLISL
1.37
